# Test system: Streptococcus Sp
# test-protocol: standard plate dilution method, Streptococcus sp.
# Format: cell-based
# Design: key: +: active; -: inactive
# assay-conditions: agar plates, 1 to 100 milligrams/liter
assay-endpoint: Microorganism SS (growth inhibition)

| molecule | assay-endpoint | value-reported |
| --- | --- | --- |
| CC1COc2cccc3c(=O)c(C(=O)O)cn1c23 (stereo not drawn) [Example 19] | Microorganism SS (growth inhibition) | - |
| CC1COc2c(F)ccc3c(=O)c(C(=O)O)cn1c23 (stereo not drawn) [Example 21] | Microorganism SS (growth inhibition) | + |
| O=C(O)c1cn2c3c(cc(F)cc3c1=O)OCC2 [Example 43 (acid)] | Microorganism SS (growth inhibition) | + |
| CCOC(=O)c1cn2c3c(ccc(F)c3c1=O)OCC2C (stereo not drawn) [Example 5] | Microorganism SS (growth inhibition) | - |
| CCOC(=O)c1cn2c3c(c(C)cc(C)c3c1=O)OCC2C (stereo not drawn) [Example 42 (ester)] | Microorganism SS (growth inhibition) | - |
| CC1COc2c(Cl)ccc3c(=O)c(C(=O)O)cn1c23 (stereo not drawn) [Example 22] | Microorganism SS (growth inhibition) | + |
| CCOC(=O)c1cn2c3c(c(C)ccc3c1=O)OCC2C (stereo not drawn) [Example 39 (ester)] | Microorganism SS (growth inhibition) | + |
| CCOC(=O)c1cn2c3c(c(Cl)cc(C)c3c1=O)OCC2C (stereo not drawn) [Example 37 (ester)] | Microorganism SS (growth inhibition) | - |
| CCOC(=O)c1cn2c3c(c(C)cc(Cl)c3c1=O)OCC2C (stereo not drawn) [Example 41 (ester)] | Microorganism SS (growth inhibition) | - |
